Assay System: T1, CTLA-4-hFc (immunogen A; hFc-labeled CTLA-4 extracellular domain protein) (human, UniProt P16410 36-161)
T1 construct: range 36-161; Made in HEK293 cells, purified on protein A; also called CLTA-4-hFc; CTLA-4 protein; not shown: human IgG Fc fragment (hFc) of the pCpC vector
T1 sequence (looked up): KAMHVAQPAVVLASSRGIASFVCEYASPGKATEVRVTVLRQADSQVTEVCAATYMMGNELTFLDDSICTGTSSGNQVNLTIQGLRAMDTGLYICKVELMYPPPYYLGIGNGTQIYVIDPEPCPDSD
Method Notes: ELISA, coated CTLA-4-hFc, competitor biotin-B7.1-hFc
Experimental Endpoint: Inhibition rate (%) at 22.2 nM
Return type: number; implicit unit %.

# count of solved cases: 3
31C12F3 (chimeric antibody purified from hybridoma supernatant) (antibody, V domains shown, also called mAb010) VH: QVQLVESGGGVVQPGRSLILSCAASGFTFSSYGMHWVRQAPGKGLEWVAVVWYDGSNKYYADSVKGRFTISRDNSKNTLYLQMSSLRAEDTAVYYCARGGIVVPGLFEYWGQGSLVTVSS VL: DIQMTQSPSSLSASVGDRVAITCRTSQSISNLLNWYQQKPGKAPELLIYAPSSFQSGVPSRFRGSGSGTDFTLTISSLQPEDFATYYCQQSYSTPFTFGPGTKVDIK :: 93.6
40C4C6 (chimeric antibody purified from hybridoma supernatant) (antibody, V domains shown, also called mAb09; mAb009) VH: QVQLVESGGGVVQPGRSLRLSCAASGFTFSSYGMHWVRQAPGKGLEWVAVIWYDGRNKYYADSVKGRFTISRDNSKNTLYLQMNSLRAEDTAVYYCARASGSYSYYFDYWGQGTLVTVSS VL: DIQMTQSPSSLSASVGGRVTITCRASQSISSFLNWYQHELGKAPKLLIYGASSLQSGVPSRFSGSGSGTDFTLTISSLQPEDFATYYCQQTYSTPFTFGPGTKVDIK :: 87.5
92C8B6 (chimeric antibody purified from hybridoma supernatant) (antibody, V domains shown, also called mAb42; mAb042) VH: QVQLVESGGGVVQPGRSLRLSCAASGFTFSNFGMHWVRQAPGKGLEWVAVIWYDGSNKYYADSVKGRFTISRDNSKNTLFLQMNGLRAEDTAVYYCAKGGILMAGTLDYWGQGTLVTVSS VL: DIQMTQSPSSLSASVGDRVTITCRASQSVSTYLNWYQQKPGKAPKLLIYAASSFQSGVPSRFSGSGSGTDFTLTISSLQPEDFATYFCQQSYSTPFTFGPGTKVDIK :: 96

Now take the following binder into account.
Specify measured Inhibition rate (%) at 22.2 nM for 97A8D1 (chimeric antibody purified from hybridoma supernatant) (antibody, V domains shown, also called mAb49; mAb049) VH: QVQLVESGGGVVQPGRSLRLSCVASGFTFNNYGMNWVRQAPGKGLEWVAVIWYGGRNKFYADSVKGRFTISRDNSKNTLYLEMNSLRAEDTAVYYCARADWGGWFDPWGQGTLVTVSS VL: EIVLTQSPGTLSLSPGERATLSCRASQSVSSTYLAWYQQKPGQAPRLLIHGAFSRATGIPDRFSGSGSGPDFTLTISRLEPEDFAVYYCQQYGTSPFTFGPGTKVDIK .
91
